- measuredOn: T1, human VEGFA165 (human, UniProt P15692-4 27-191)
- T1 construct: Bought protein from two suppliers, treated as one molecule; the supplier is named under assay; also called antigen VEGFA
- assayInfo: competitive ELISA, coated VEGFA, competitor VEGFR2-ECD-Fc 1 nM
binders and their reported Maximum inhibition rate (%)
Only the number, expressed in %, is required.

Use the examples below as a reference point.
binder="V15-V40 (bispecific antibody) QLQLVESGGGSVQPGGSLRLSCEVSGRTFASYTMGWFRQAPGKEREFVVAISKGGYKYDSVSLEARFTISKDNTKNTVYLQMNSLKPEDTAVYYCAGTRAYGSSRLRLAETYEYWGQGTQVTVSSGGGGSGGGSQLQLVESGGGSVQPGGSLRLSCEVSGRTFTSYTMGWFRQAPGKEREFVVAISKGGYKYNAVSLEARFTISKDNTKNTVYLQMNSLKPEDTAVYYCAATRAYGSSRLRLAKTYEYWGQGTQVTVSS" unitofmeasure=% reportedmeasurement=90.1
binder="V1-V15 (bispecific antibody) QLQLVESGGGSVQPGGSLRLSCEVSGRTFSSYTMGWFRQAPGKEREFVVAISKGGYKYDSVSLEARFTISKDNTKNTVYLQMNSLKPEDTAVYYCAATRAYGSSRLRLADTYEYWGQGTQVTVSSGGGGSGGGSQLQLVESGGGSVQPGGSLRLSCEVSGRTFASYTMGWFRQAPGKEREFVVAISKGGYKYDSVSLEARFTISKDNTKNTVYLQMNSLKPEDTAVYYCAGTRAYGSSRLRLAETYEYWGQGTQVTVSS" unitofmeasure=% reportedmeasurement=87.8

Challenge: # input binder: V15-V30 (bispecific antibody) QLQLVESGGGSVQPGGSLRLSCEVSGRTFASYTMGWFRQAPGKEREFVVAISKGGYKYDSVSLEARFTISKDNTKNTVYLQMNSLKPEDTAVYYCAGTRAYGSSRLRLAETYEYWGQGTQVTVSSGGGGSGGGSQLQLVESGGGSVQPGGSLRLSCEVSGRTFSSYTMGWFRQAPGKGREFVVAISKGGYKYDAVSLEARFTISKDNTKNTVYLQMNSLKPEDTAVYYCAATRAYGSSRLRLAKTYEYWGQGTQVTVSS ; wanted: its Maximum inhibition rate (%)
Response given: 91.2
